System: Enterobacter cloacae
MEASUREMENT DESCRIPTION: Antimicrobial activity against Enterobacter cloacae with derepressed AmpC beta-lactamsae assessed as susceptible isolate by broth microdilution method
Format: functional
MEASUREMENT LABEL: Activity (%)
Give just the numeric value; % need not be written.

Some compounds with known Activity results, for comparison:
C[C@@H](O)[C@H]1C(=O)N2C(C(=O)O)=C(S[C@@H]3CN[C@H](C(=O)N(C)C)C3)[C@H](C)[C@H]12 [MEROPENEM] = 100
CO/N=C(\C(=O)N[C@@H]1C(=O)N2C(C(=O)O)=C(CSc3nc(=O)c(O)nn3C)CS[C@H]12)c1csc(N)n1 [CEFTRIAXONE] = 0
C[C@@H](O)[C@H]1C(=O)N2C(C(=O)O)=C(S[C@@H]3CN[C@H](CNS(N)(=O)=O)C3)[C@H](C)[C@H]12 [DORIPENEM] = 99
C[C@@H](O)[C@H]1C(=O)N2C(C(=O)O)=C(SCCNC=N)C[C@H]12 [IMIPENEM ANHYDROUS] = 100

stdin: Answer with the recorded Activity of CC(C)(O/N=C(\C(=O)N[C@@H]1C(=O)N2C(C(=O)[O-])=C(C[n+]3ccccc3)CS[C@H]12)c1csc(N)n1)C(=O)O [CEFTAZIDIME] only.
stdout: 1
